Origin of values: patent US20240425523A1

# Target or test system: p-EGFR L858R (BaF3-L858R cells) (Homo sapiens, UniProt P00533, L858R)
# Sequence (P00533 25-1210 L858R): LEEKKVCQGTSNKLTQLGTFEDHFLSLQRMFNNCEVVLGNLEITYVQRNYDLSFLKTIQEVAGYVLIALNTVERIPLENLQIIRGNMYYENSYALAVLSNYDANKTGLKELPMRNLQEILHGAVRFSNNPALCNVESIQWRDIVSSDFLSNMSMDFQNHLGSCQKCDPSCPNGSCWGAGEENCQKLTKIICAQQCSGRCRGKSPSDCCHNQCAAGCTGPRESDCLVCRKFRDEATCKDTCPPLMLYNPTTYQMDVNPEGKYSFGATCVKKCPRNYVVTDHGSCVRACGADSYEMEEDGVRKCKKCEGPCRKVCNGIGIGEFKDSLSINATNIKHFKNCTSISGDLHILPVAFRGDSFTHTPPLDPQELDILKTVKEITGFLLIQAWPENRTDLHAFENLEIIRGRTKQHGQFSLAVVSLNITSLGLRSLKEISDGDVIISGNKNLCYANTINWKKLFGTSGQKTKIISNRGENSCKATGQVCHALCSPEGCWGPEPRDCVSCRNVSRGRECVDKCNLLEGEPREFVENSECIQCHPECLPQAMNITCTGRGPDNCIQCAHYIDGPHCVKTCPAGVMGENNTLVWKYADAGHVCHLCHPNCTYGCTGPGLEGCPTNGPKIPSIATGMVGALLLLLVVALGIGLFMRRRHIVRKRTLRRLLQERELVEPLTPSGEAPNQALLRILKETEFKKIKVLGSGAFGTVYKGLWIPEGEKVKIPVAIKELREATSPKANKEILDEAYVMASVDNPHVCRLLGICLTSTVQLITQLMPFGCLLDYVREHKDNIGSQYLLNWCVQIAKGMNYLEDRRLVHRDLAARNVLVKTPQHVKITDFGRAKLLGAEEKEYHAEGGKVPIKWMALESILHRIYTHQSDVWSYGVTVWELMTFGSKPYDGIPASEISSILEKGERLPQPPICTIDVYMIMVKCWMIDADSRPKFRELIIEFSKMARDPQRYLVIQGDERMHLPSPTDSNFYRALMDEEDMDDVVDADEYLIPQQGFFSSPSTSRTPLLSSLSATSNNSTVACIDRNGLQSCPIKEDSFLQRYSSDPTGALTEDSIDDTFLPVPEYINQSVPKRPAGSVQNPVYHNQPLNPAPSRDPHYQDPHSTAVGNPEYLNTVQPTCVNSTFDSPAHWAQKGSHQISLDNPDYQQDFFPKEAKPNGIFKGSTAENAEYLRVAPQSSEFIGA
# Protocol description: Cell p-EGFR inhibition assay, HTRF, BaF3-L858R cells
# Details: 16 h treatment, pEGFR inhibition
Observed property: IC50

1. Cc1cc2cc(n1)-c1c(C)nn(C)c1OC[C@H]1CC[C@H](C1)CN1/C(=N/C2=O)Nc2ccc(N3CCN(CC4CCN(c5cc(F)c([C@H]6CCC(=O)NC6=O)c(F)c5)CC4)CC3)cc21 ... 2.21 nM
2. Cc1cc2cc(n1)-c1cnn(C)c1OC[C@H]1CCC(C1)CN1/C(=N/C2=O)Nc2ccc(N3CCC(N4CCC(Nc5cc(F)c([C@H]6CCC(=O)NC6=O)c(F)c5)CC4)CC3)cc21 (single isomer, unassigned) ... 7.9 nM
3. Cc1cc2cc(n1)-c1cnn(C)c1OC[C@H]1CCC(C1)CN1/C(=N/C2=O)Nc2ccc(N3CCN([C@H]4CCN(c5cc(F)c([C@H]6CCC(=O)NC6=O)c(F)c5)C[C@H]4F)CC3)cc21 (single isomer, unassigned) ... 6 nM
4. Cc1cc2cc(n1)-c1c(C)nn(C)c1OC[C@H]1CC[C@H](C1)CN1/C(=N/C2=O)Nc2ccc(N3[C@@H](C)CN(C4CCN(c5cc(F)c([C@H]6CCC(=O)NC6=O)c(F)c5)CC4)C[C@@H]3C)cc21 ... 6.66 nM
5. Cc1cc2cc(n1)-c1c(C)nn(C)c1OC[C@H]1CC[C@H](C1)CN1/C(=N/C2=O)Nc2ccc(N3CCN(C4CCN(c5cc(F)c([C@H]6CCC(=O)NC6=O)c(F)c5)CC4)C[C@H]3CF)cc21 ... 9.25 nM
6. Cc1cc2cc(n1)-c1c(C)nn(C)c1OC[C@H]1CC[C@H](C1)CN1/C(=N/C2=O)Nc2ccc(N3CCN(C4CCN(c5cc(F)c([C@H]6CCC(=O)NC6=O)c(F)c5)CC4)[C@@H](CC#N)C3)cc21 ... 2.24 nM
7. Cc1cc2cc(n1)-c1c(C)nn(C)c1OC[C@H]1CC[C@H](C1)CN1/C(=N/C2=O)Nc2ccc(N3CCC(N(C)C4CN(c5cc(F)c([C@H]6CCC(=O)NC6=O)c(F)c5)C4)CC3)cc21 ... 4.77 nM
8. Cc1cc2cc(n1)-c1cnn(C)c1OC[C@H]1CCC(C1)CN1/C(=N/C2=O)Nc2cc(C)c(N3CCN([C@@H]4CCN(c5ccc(C6CCC(=O)NC6=O)nc5C)C[C@@H]4F)CC3)cc21 (stereo partly drawn) ... 1.5 nM
9. Cc1cc2cc(n1)-c1cnn(C)c1OC[C@H]1CCC(C1)CN1/C(=N/C2=O)Nc2ccc(N3CCN(C4(CO)CCN(c5ccc(C6CCC(=O)NC6=O)nc5C)CC4)CC3)cc21 (stereo partly drawn) ... 7.3 nM

---

# Target or test system: p-EGFR L858R (BaF3-L858R cells) (Homo sapiens, UniProt P00533, L858R)
# Protocol description: Cell p-EGFR inhibition assay, HTRF, BaF3-L858R cells
# Details: 16 h treatment, pEGFR inhibition
# Experimental: BaF3-L858R (abbv. L858R) cell were purchased from Kangyuan Bochuang Biotechnology (Beijing) Co., Ltd. H1975-#23 and BaF3-L858R cells are treated with compounds diluted in 0.1% DMSO cell culture medium on day 2, incubate for 16 h, 37° C., 5% CO2. the final concentration of compounds in all assay is start with 10 uM, 5-fold dilution, total 8 doses were included. […] High control=Cell group with added DMSO and without compound, indicating microplate readings without p-EGFR inhibited. […]
pIC50: −log10 of the molar value.
Observed property: pIC50

1) Cc1cc2cc(n1)-c1cnn(C)c1OC[C@H]1CCC(C1)CN1/C(=N/C2=O)Nc2ccc(N3CCN(C4CCN(c5ccc(NC6CCC(=O)NC6=O)nc5C)CC4)CC3)cc21 (some centres unmarked) ... 8.33
2) Cc1cc2cc(n1)-c1cnn(C)c1OC[C@H]1CCC(C1)CN1/C(=N/C2=O)Nc2ccc(N3CCN(C4CCN(c5ccc(OC6CCC(=O)NC6=O)cc5F)CC4)CC3)cc21 (some centres unmarked) ... 8.21
3) Cc1cc2cc(n1)-c1c(C)nn(C)c1OC[C@H]1CC[C@H](C1)CN1/C(=N/C2=O)Nc2ccc(N3CCN(C[C@@H]4CCN(c5cc(F)c([C@H]6CCC(=O)NC6=O)c(F)c5)C4)CC3)cc21 ... 8.90
4) Cc1cc2cc(n1)-c1cnn(C)c1OC[C@H]1CCC(C1)CN1/C(=N/C2=O)Nc2ccc(N3CC4(C3)CN(C3CCN(c5cc(F)c([C@H]6CCC(=O)NC6=O)c(F)c5)CC3)C4)cc21 ... 7.83
5) Cc1cc2cc(n1)-c1cnn(C)c1OC[C@H]1CCC(C1)CN1/C(=N/C2=O)Nc2ccc(N3CCN(C4CCN(c5c(F)cc(OC6CCC(=O)NC6=O)cc5F)CC4)CC3)cc21 (some centres unmarked) ... 7.79
